# subject_of_test: acetylcholine receptor (Homo sapiens, UniProt P02708)
# Sequence (P02708 21-457): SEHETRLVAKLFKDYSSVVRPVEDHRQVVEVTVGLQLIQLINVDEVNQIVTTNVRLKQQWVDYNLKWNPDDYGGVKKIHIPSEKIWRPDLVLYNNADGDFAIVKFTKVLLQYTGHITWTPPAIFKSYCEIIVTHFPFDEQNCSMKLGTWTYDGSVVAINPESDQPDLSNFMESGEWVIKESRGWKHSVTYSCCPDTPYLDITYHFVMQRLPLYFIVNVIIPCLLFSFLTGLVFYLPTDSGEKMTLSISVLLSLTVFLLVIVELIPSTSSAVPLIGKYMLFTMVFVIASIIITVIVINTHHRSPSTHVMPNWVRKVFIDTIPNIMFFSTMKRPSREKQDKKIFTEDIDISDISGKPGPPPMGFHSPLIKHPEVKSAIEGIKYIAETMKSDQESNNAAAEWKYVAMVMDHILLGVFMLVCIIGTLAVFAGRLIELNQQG
# protocol_details: SPR binding affinity (RU) of optimized 5mer/6mer/7mer peptides, Examples 6-7
# measurement_conditions: SPR, Resonance Units; peptides tested at 10 μM; 6mer-1 Bottom sequence
readout_label: Binding affinity (Ru)
Numeric only. Scale: Ru

{"columns": ["substance", "reported_value"],
 "data": [
  ["6mer-1-1068 (KRYHIR)", 31],
  ["6mer-1-1100 (KRMSHK)", 43],
  ["6mer-1-1102 (KRFTKK)", 35],
  ["6mer-1-1035 (RRCHHR)", 34],
  ["6mer-1-1166 (KKEEKR)", 22]
]}

Please look at the following substance next.
acetylcholine receptor (Homo sapiens, UniProt P02708) / Binding affinity / 6mer-1-1048 (RRCMMK) : value?
36

Origin of measurements: patent US20250011363A1
